B1: TPR t1 (parent)
chain: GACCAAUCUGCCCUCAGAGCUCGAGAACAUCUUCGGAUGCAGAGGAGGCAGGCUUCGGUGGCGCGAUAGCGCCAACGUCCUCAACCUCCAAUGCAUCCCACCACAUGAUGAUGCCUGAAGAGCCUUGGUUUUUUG

# Variants of: B1
# experiment-description: polymerase ribozyme fitness, log enrichment relative to wild type (log ratio); higher = more active; in vitro selection for triplet polymerase activity
reported-endpoint: polymerase ribozyme fitness (log ratio)
Form: value (number only, do not type unit).

C34A G39U C56G; -3.08
U87C G120A G127A; -1.22
A16G A46U C124U; -0.673
A29U G47U C62U; -4.34
C72U G110U U125A; -2.31

Data request: # get_value(readout='polymerase ribozyme fitness (log ratio)', item= C8A U21C C62U A83G G117A )
Data returned: -1.21

Data request: Entry C8G G48U G58C A75U U109C G113U : reported polymerase ribozyme fitness (log ratio) = ?
Data returned: -6.98
